Sourced from PubChem BioAssay AID434961

target: Regulator of chromosome condensation (Homo sapiens) + GTP-binding nuclear protein Ran (Homo sapiens) + Importin subunit beta-1 (Homo sapiens) (UniProt P18754+P62826+Q14974); assay: RanGTP/importin-beta interaction disruptors – biochemical, CFP-Ran/YFP-importin-beta FRET, RCC1, cell-free, primary screen (AID 434961); settings: stronger effect = higher value, concentration not given here;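 note: 0% = DMSO wells and 100% inhibition = RanGDP control wells on each plate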
Hit rate of the full screen: of about 7,700 compounds, about 15 (0.2%) were called active. Roughly 6% stayed inconclusive and do not appear here. For the sample, actives were picked, then their nearest neighbours and some compounds at random.
inhibition values by entry

Compound structure string | Unit name | inhibition
C[C@@H]1CN([C@H](C)CO)C(=O)Cc2cc(N(C)C)ccc2O[C@H]1CN(C)Cc1ccc(C(F)(F)F)cc1 | % | -0.721
C[C@@H]1CCCCO[C@@H](CN(C)Cc2ccccc2)[C@@H](C)CN([C@H](C)CO)C(=O)c2cc(N(C)C)ccc2O1 | % | -4.07
C[C@@H]1CN([C@@H](C)CO)C(=O)c2cccc(NC(=O)c3ccncc3)c2O[C@H]1CN(C)S(=O)(=O)c1cccs1 | % | 0.118
C[C@@H]1CCCCO[C@@H](CN(C)C(=O)c2ccncc2)[C@@H](C)CN([C@@H](C)CO)C(=O)c2cc(NS(=O)(=O)c3cccs3)ccc2O1 | % | -2.75

###

target: Regulator of chromosome condensation (Homo sapiens) + GTP-binding nuclear protein Ran (Homo sapiens) + Importin subunit beta-1 (Homo sapiens) (UniProt P18754+P62826+Q14974); assay: RanGTP/importin-beta interaction disruptors – biochemical, CFP-Ran/YFP-importin-beta FRET, RCC1, cell-free, primary screen (AID 434961); conditions: stronger effect = higher value, concentration not given here;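 note: 0% = DMSO wells and 100% inhibition = RanGDP control wells on each plate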
Among all 7,700 compounds or so, about 15 (0.2%) were called active. Not shown: some 6% with an inconclusive outcome. Many of the other results were omitted from the sample, so actives are more common in it than they were.
inhibition values by entry

Compound structure string | inhibition (%)
C[C@@H]1CN([C@H](C)CO)C(=O)c2cc(NC(=O)Cc3ccccc3)ccc2O[C@@H]1CN(C)C(=O)NC1CCCCC1 | 1.32
C[C@@H]1CN([C@@H](C)CO)C(=O)c2cccc(NC(=O)c3cnccn3)c2O[C@H]1CN(C)C(=O)NC1CCCCC1 | 0.00388
C[C@@H]1CCCCO[C@H](CN(C)C)[C@H](C)CN([C@H](C)CO)C(=O)c2cc(NC(=O)Nc3ccc4c(c3)OCO4)ccc2O1 | 7.53
COc1ccccc1CN(C)C[C@H]1OCc2cn(nn2)CCCC(=O)N([C@H](C)CO)C[C@H]1C | 3.38

###

molecular target: Regulator of chromosome condensation (Homo sapiens) + GTP-binding nuclear protein Ran (Homo sapiens) + Importin subunit beta-1 (Homo sapiens) (UniProt P18754+P62826+Q14974); test: RanGTP/importin-beta interaction disruptors – biochemical, CFP-Ran/YFP-importin-beta FRET, RCC1, cell-free, primary screen (AID 434961); details: concentration not given here;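 note: 0% = DMSO wells and 100% inhibition = RanGDP control wells on each plate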
Among all 7,700 compounds or so, about 15 (0.2%) were called active. Not shown: some 6% with an inconclusive outcome.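 The calls were made as follows: active = more than half of replicate wells with inhibition above about 18% (limit read from the data, passing the limit was not always enough); inconclusive = exactly half of replicate wells above that limit; inactive = fewer than half of replicates above it.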 Only a selection was taken, and actives are over-represented in it overall.
Outcomes: 1 (yes) = active, 0 (no) = inactive

Compound structure string | Label value
C[C@@H]1CN([C@@H](C)CO)C(=O)Cc2cc(NC(=O)c3ccncc3)ccc2O[C@H]1CN(C)C(=O)Nc1ccccc1 | 0 (no)
C[C@@H]1CCCCO[C@@H](CN(C)Cc2ccncc2)[C@H](C)CN([C@@H](C)CO)C(=O)c2cc(NS(C)(=O)=O)ccc2O1 | 0 (no)
C[C@H](CO)N1C[C@H](C)[C@H](CN(C)CC2CC2)Oc2c(NC(=O)c3ccc(-c4nccs4)cc3)cccc2C1=O | 0 (no)
C[C@@H]1CN([C@H](C)CO)C(=O)c2cc(NC(=O)c3ccncc3)ccc2O[C@@H](C)CCCCO[C@H]1CN(C)S(=O)(=O)c1ccc(F)cc1 | 0 (no)
C[C@H](CO)N1C[C@H](C)[C@H](CN(C)C(=O)OCc2ccccc2)OCc2cn(nn2)CCCC1=O | 0 (no)
C[C@H]1CCCCO[C@H](CN(C)C(=O)C2CCCCC2)[C@@H](C)CN([C@@H](C)CO)C(=O)c2cc(NS(=O)(=O)c3cccs3)ccc2O1 | 0 (no)
C[C@@H]1CN([C@H](C)CO)C(=O)c2cc(NS(C)(=O)=O)ccc2O[C@@H](C)CCCCO[C@@H]1CN(C)Cc1ccncc1 | 1 (yes)
C[C@@H]1CN([C@@H](C)CO)C(=O)c2cc(NS(C)(=O)=O)ccc2O[C@@H](C)CCCCO[C@H]1CN(C)C(=O)Cc1ccccc1 | 1 (yes)
CNC[C@H]1Oc2ccc(NS(=O)(=O)c3cccs3)cc2CC(=O)N([C@H](C)CO)C[C@H]1C | 0 (no)
C[C@@H]1CN([C@@H](C)CO)C(=O)Cc2cc(NC(=O)c3ccncc3)ccc2O[C@@H]1CN(C)C(=O)Nc1cccc2ccccc12 | 0 (no)
C[C@@H]1CN([C@H](C)CO)C(=O)Cc2cc(NC(=O)Nc3ccccc3)ccc2O[C@H]1CN(C)CC1CC1 | 0 (no)
Cc1cc(C(=O)Nc2cccc3c2O[C@@H](CN(C)CC2CC2)[C@@H](C)CN([C@@H](C)CO)C3=O)n(C)n1 | 0 (no)
C[C@H]1CN([C@@H](C)CO)C(=O)c2cccc(NC(=O)c3ccc(-c4nccs4)cc3)c2O[C@H]1CN(C)C(=O)Nc1ccccc1 | 1 (yes)
C[C@H]1CN([C@@H](C)CO)C(=O)c2cccc(NS(=O)(=O)c3ccc(Cl)cc3)c2O[C@H]1CN(C)Cc1ccncc1 | 0 (no)
CNC[C@H]1Oc2ccc(NC(=O)Cc3ccccc3)cc2C(=O)N([C@H](C)CO)C[C@@H]1C | 0 (no)
C[C@H]1CCCCO[C@@H](CN(C)C(=O)Cc2ccccc2)[C@@H](C)CN([C@@H](C)CO)C(=O)c2cc(NS(C)(=O)=O)ccc2O1 | 0 (no)
C[C@H]1CN([C@@H](C)CO)C(=O)c2cccc(NC(=O)c3ccc(-c4nccs4)cc3)c2O[C@@H]1CN(C)C(=O)Nc1ccccc1 | 0 (no)
C[C@@H]1CN([C@@H](C)CO)C(=O)c2cc(NC(=O)CCCN(C)C)ccc2O[C@@H](C)CCCCO[C@H]1CN(C)Cc1ccc2c(c1)OCO2 | 0 (no)
C[C@@H]1CN([C@@H](C)CO)C(=O)c2cccc(NS(C)(=O)=O)c2O[C@H]1CN(C)S(=O)(=O)c1cn(C)cn1 | 0 (no)
C[C@H](CO)N1C[C@H](C)[C@@H](CN(C)Cc2ccncc2)Oc2c(NS(C)(=O)=O)cccc2C1=O | 1 (yes)
C[C@@H]1CN([C@H](C)CO)C(=O)c2cc(NS(=O)(=O)c3cn(C)cn3)ccc2O[C@H]1CN(C)C(=O)Nc1ccc(F)cc1 | 0 (no)
C[C@H](CO)N1C[C@H](C)[C@@H](CN(C)C(=O)Nc2ccc3c(c2)OCO3)Oc2ccc(N(C)C)cc2C1=O | 0 (no)
C[C@H]1CCCCO[C@H](CN(C)Cc2ccc3c(c2)OCO3)[C@@H](C)CN([C@@H](C)CO)C(=O)c2cc(NC(=O)CCCN(C)C)ccc2O1 | 0 (no)
Cc1noc(C)c1S(=O)(=O)Nc1ccc2c(c1)CC(=O)N([C@H](C)CO)C[C@H](C)[C@H](CN(C)C(=O)Nc1cccc3ccccc13)O2 | 0 (no)
C[C@@H]1CN([C@@H](C)CO)C(=O)Cc2cc(NS(=O)(=O)c3cn(C)cn3)ccc2O[C@H]1CN(C)S(=O)(=O)c1ccc(Cl)cc1 | 0 (no)
COc1ccc(NC(=O)Nc2ccc3c(c2)C(=O)N([C@@H](C)CO)C[C@@H](C)[C@H](CN(C)Cc2ccc(C(=O)O)cc2)O3)cc1 | 0 (no)
C[C@H]1CN([C@@H](C)CO)C(=O)c2cccc(NC(=O)c3cnccn3)c2O[C@@H]1CN(C)C(=O)Nc1ccccc1 | 0 (no)
C[C@@H]1CN([C@H](C)CO)C(=O)c2cccc(NC(=O)c3ccc(-c4nccs4)cc3)c2O[C@@H]1CN(C)CC1CC1 | 1 (yes)

###

molecular target: Regulator of chromosome condensation (Homo sapiens) + GTP-binding nuclear protein Ran (Homo sapiens) + Importin subunit beta-1 (Homo sapiens) (UniProt P18754+P62826+Q14974); experiment: RanGTP/importin-beta interaction disruptors – biochemical, CFP-Ran/YFP-importin-beta FRET, RCC1, cell-free, primary screen (AID 434961); conditions: stronger effect = higher value, concentration not given here;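 note: 0% = DMSO wells and 100% inhibition = RanGDP control wells on each plate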
About 15 (0.2%) of roughly 7,700 compounds were called active. About 6% were inconclusive and are not listed. The list comes from a sample in which actives are over-represented; it also holds close analogues and randomly drawn compounds.
inhibition values by entry

Compound structure string | inhibition
COc1ccc(CN(C)C[C@@H]2OCCCC[C@H](C)Oc3ccc(NC(=O)Nc4c(C)noc4C)cc3C(=O)N([C@H](C)CO)C[C@@H]2C)cc1 | 0.0847% (inactive)
COc1ccc(CN(C)C[C@H]2Oc3ccc(NC(=O)Nc4c(C)noc4C)cc3CC(=O)N([C@H](C)CO)C[C@@H]2C)cc1 | -6.52% (inactive)
C[C@H](CO)N1C[C@H](C)[C@H](CN(C)Cc2ccc(Cl)c(Cl)c2)Oc2c(NS(=O)(=O)c3cn(C)cn3)cccc2C1=O | -0.00607% (inactive)
C[C@@H]1CCCCO[C@H](CN(C)C(=O)Nc2ccccc2)[C@@H](C)CN([C@H](C)CO)C(=O)c2cc(NC(=O)Cc3ccccc3)ccc2O1 | 0.496% (inactive)
C[C@@H]1CCCCO[C@@H](CN(C)S(C)(=O)=O)[C@H](C)CN([C@H](C)CO)C(=O)c2cc(NS(=O)(=O)c3ccccc3)ccc2O1 | -0.778% (inactive)
C[C@@H]1CN([C@@H](C)CO)C(=O)CCCn2nncc2CO[C@@H]1CN(C)C | 4.43% (inactive)
Cc1noc(C)c1NC(=O)Nc1ccc2c(c1)CC(=O)N([C@H](C)CO)C[C@@H](C)[C@H](CN(C)S(=O)(=O)c1ccccc1)O2 | 0.923% (inactive)
